experiment: gradient 5% acetonitrile 3 min, to 50% in 2 min, to 85% in 15 min, held 3 min, 100 µL/min; conditions: column: Zorbax Extend-C18 2.1 x 50 mm; eluents: water / acetonitrile, 0.1% formic acid
metric name: RP-LC retention time (s)

Some compounds with known RP-LC retention time results, for comparison:
>>> recorded_value("CCn1c(CCC(=O)NCc2cccc(F)c2)nc2ccccc2c1=O")
700
>>> recorded_value("Cc1cccc(-c2ncccc2CNS(=O)(=O)c2ccc(Cl)s2)c1")
785
>>> recorded_value("COC(=O)c1cc(C)sc1NC(=O)CC1Sc2ccc(C(F)(F)F)cc2NC1=O (centres undefined)")
1030
>>> recorded_value("CC(C)c1cc(C(=O)Nc2ccc(Cl)cc2)nc2ccnn12")
1060
>>> recorded_value("COc1ccc(C)cc1NC(=O)Cn1c(=O)c(CCC(=O)NCC(C)C)nc2ccccc21")
852
>>> recorded_value("Cc1nnsc1C(=O)Nc1ccc(-n2nc(C(F)(F)F)cc2C(F)(F)F)cc1")
758
>>> recorded_value("O=C1CC(c2nc(-c3ccc4c(c3)OCO4)no2)CN1c1ccc2c(c1)OCO2 (centres undefined)")
862

I. O=C(Nc1ccc(C(F)(F)F)cc1)N1CCCC(Cn2c(C3CC3)nc3cccnc32)C1 (centres undefined)
II. O=S(=O)(c1ccc2nc(N3CCN(c4cccc(Cl)c4)CC3)ccc2c1)N1CCCCC1
Which gives the smaller RP-LC retention time number: I or II ? # reply format: chosen label
I

Each recorded value in this set is attributed to the METLIN SMRT retention time set (Domingo-Almenara et al. 2019).
